- target.or.system: Cyclin-dependent kinase 4/cyclin D1 (Homo sapiens) (UniProt P11802+P24385)
- run.description: Inhibitory activity against Cyclin D1-cyclin-dependent kinase 4
- Assay type: protein-complex assay
- Design: concentration or dose not given beside the values
- condition.label: concentration not given here
measured.metric: inhibition (%)

Recorded inhibition, per entry:
Cc1ccc(C(=O)Oc2ccccc2/C=C/C=O)cc1; 50
O=C/C=C/c1ccccc1O [2-HYDROXYCINNAMALDEHYDE]; 50
CC(Oc1cccc(/C=C/C=O)c1)c1ccccc1 (centres undefined); 77
O=C/C=C/c1ccccc1OCc1ccc(Br)cc1; 71
O=C/C=C/c1cccc(OCc2ccccc2)c1; 94

a. CC(Oc1ccccc1/C=C/C=O)c1ccccc1 (centres undefined)
b. O=C/C=C/c1ccccc1[N+](=O)[O-]
# returns the entry with the larger inhibition; inputs a and b Could you answer with the label of the item you picked?
a

====

- target.or.system: Cyclin-dependent kinase 4/cyclin D1 (Homo sapiens)
- run.description: Inhibition of Cyclin D1-Cyclin dependent kinase 4
- Format: protein-complex assay
measured.metric: IC50 (µM)
Report as a plain number; the unit µM is understood.

Value lookup for IC50; key = `O=C/C=C/c1cccc(O)c1`
45

====

- target.or.system: Cyclin-dependent kinase 4/cyclin D1 (Homo sapiens, UniProt P11802)
- Sequence (P11802 whole entry): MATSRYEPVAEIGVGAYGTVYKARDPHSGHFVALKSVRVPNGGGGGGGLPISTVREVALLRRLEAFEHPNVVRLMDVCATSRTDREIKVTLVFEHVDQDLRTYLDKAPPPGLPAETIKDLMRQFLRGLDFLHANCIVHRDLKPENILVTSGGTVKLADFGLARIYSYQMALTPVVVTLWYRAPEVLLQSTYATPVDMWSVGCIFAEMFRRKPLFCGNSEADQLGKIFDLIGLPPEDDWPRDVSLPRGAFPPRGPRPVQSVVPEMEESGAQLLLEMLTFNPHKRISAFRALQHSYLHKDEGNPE
- Sequence (P24385 whole entry, further chain): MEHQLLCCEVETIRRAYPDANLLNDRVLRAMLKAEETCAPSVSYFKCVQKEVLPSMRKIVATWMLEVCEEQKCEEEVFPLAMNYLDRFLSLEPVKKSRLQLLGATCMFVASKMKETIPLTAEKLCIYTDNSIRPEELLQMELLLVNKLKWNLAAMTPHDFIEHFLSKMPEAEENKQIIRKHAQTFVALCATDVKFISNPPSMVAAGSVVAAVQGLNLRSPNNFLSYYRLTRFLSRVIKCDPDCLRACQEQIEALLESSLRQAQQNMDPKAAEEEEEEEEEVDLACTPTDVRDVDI
- run.description: Inhibition of Cyclin D1-cyclin-dependent kinase 4
- Type: protein-complex assay
measured.metric: pIC50
Entry type: numeric. Quantity: pIC50, the -log10 of concentration in molar units.

O=C/C=C/c1ccccc1OCc1ccccc1; 4.96
O=C/C=C/c1cccc(OCc2ccccc2)c1; 5.12
O=C/C=C/c1ccccc1O [2-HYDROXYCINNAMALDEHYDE]; 4.46
Cc1ccccc1COc1ccccc1/C=C/C=O; 4.74

Then this compound:
Value lookup for pIC50; key = `Cc1ccccc1COc1cccc(/C=C/C=O)c1`
4.82

====

- target.or.system: Cyclin-dependent kinase 1/cyclin B (Homo sapiens, UniProt P06493)
- run.description: Inhibition of Cyclin B-cyclin-dependent kinase 1
measured.metric: IC50 (µM)

Recorded IC50, per entry:
Cc1ccccc1COc1cccc(/C=C/C=O)c1; 60
O=C/C=C/c1cccc(OCc2ccccc2)c1; 50
Cc1ccccc1COc1ccccc1/C=C/C=O; 200
O=C/C=C/c1ccccc1OCc1ccccc1; 50

P. O=C/C=C/c1ccccc1O [2-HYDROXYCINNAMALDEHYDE]
Q. O=C/C=C/c1cccc(O)c1
Could you tell me which of P and Q has the lower IC50 reading? Could you answer with the label of the item you picked?
Q

====

- target.or.system: Cyclin-dependent kinase 4/cyclin D1 (Homo sapiens) (UniProt P11802+P24385)
- run.description: Inhibitory activity against Cyclin D1-cyclin-dependent kinase 4
- Format: protein-complex assay
- Set-up: concentration or dose not given beside the values
- condition.label: concentration not given here
measured.metric: inhibition (%)

COc1ccc(/C=C/C=O)cc1O; 40
N#Cc1ccccc1COc1cccc(/C=C/C=O)c1; 45
O=C/C=C/c1ccccc1OCCc1ccccc1; 72
COc1ccccc1COc1ccccc1/C=C/C=O; 43

1. O=C/C=C/c1cccc(OCc2ccc3c(c2)C(=O)c2ccccc2C3=O)c1
2. O=C/C=C/c1cccc(OCc2cccc3ccccc23)c1
3. O=C/C=C/c1ccccc1OC(=O)c1ccccc1
Arrange the 3 molecules from largest to smallest inhibition. Please list each label once, in the requested order.
2, 3, 1
